- tested target: Mu-type opioid receptor (Rattus norvegicus, UniProt P33535)
- Sequence (P33535 whole entry): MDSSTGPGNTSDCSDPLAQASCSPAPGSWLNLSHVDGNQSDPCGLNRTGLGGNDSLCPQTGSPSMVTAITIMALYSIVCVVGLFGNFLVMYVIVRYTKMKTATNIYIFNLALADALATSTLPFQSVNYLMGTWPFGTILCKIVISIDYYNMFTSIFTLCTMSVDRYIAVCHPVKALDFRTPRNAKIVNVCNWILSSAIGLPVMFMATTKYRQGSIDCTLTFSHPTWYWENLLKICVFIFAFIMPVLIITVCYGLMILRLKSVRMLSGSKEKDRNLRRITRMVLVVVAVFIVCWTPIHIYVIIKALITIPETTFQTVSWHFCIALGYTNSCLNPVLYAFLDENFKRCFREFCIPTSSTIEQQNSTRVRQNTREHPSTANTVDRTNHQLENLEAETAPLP
- test: Agonist activity at rat mu opioid receptor expressed in rat C6 cells assessed as stimulation of [35S]-GTPgammaS binding after 1 hr by liquid scintillation counting analysis
- Assay type: functional, cell-based
- conditions used: read-out: EC50
Listed here are compounds together with their documented pEC50.
Remember, pEC50 is on a log scale: it is -log10 of the molar concentration.

Take a look at these entries with their results.
Cc1cc(O)cc(C)c1C[C@H](N)C(=O)N1CCN(CCCCCc2ccccc2)CC1 = 7.28
Cc1cc(O)cc(C)c1C[C@H](N)C(=O)N1CCN(C/C=C\Cc2ccccc2)CC1 = 7.39
Cc1cc(O)cc(C)c1C[C@H](N)C(=O)N1CCN(CCCCc2ccccc2)CC1 = 7.19

Prompt: Supply reported pEC50 belonging to this compound: "Cc1cc(O)cc(C)c1C[C@H](N)C(=O)N1CCN(C/C=C/Cc2ccccc2)CC1"
Response: 7.70

Prompt: Could you please provide reported pEC50 for "Cc1cc(O)cc(C)c1C[C@H](N)C(=O)N1CCC(CCCc2ccccc2)CC1" ? Thanks!
Response: 6.92

Prompt: Consider the compound "Cc1cc(O)cc(C)c1C[C@H](N)C(=O)N1CCN(CCCc2ccccc2)CC1" and give its recorded pEC50.
Response: 6.82
